Cited source for all entries: patent US20150285812A1

# study-system: HSA (Homo sapiens, UniProt P02768)
# Construct: purchased Sigma Aldrich A1887
# Sequence (P02768 25-609): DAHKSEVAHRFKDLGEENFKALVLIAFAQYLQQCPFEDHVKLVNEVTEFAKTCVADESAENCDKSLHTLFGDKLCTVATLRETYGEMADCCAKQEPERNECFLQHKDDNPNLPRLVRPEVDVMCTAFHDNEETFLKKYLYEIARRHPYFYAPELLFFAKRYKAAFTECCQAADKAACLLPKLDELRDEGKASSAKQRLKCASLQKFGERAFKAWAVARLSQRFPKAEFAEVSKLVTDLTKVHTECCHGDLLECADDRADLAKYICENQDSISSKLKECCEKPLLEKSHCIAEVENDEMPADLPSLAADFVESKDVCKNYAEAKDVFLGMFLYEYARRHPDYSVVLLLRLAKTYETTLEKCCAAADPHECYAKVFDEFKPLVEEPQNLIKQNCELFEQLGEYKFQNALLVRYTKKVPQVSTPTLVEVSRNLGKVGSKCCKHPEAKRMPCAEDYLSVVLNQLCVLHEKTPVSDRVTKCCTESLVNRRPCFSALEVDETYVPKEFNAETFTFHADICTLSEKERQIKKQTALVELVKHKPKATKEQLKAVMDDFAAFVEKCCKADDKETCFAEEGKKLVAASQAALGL
# procedure-text: Fluorescence of NBD and dansyl dyes with increasing HSA (FRET effect, emission maxima)
# Type: binding
# condition-summary: dansyl compound 100 μM, λex = 330 nm
# Experimental: Absorption and fluorescence of fluorescence-labelled derivatives and HSA were carried out in a Varioskan™ microplate reader (Thermo Electron Corporation). 96 well (Costar, half area, flat bottom) microplates were used for absorption measurements and 384 well (Greiner Bio One, small volume, black) microplates from Greiner Bio One were used for fluorescence measurements. […] In analogy to the absorption measurement the effect of HSA on the fluorescence of the dyes (12-17; 19-25) was determined. […]
Mark rule not met for Δλ, shift of emission maximum λem without HSA vs with HSA values under 80 nm, and rule met for everything at or above.

smiles-notation: CN(C)c1cccc2c(S(=O)(=O)NCC(=O)O)cccc12
assigned-label: rule met
//
smiles-notation: CN(C)c1cccc2c(S(=O)(=O)NCCCCCCCCCC(=O)O)cccc12
assigned-label: rule not met
//
smiles-notation: CN(C)c1cccc2c(S(=O)(=O)NCCCCCCCC(=O)O)cccc12
assigned-label: rule not met
//
smiles-notation: CN(C)c1cccc2c(S(=O)(=O)NCCCCCCCCCCCC(=O)O)cccc12
assigned-label: rule not met
//
smiles-notation: CN(C)c1cccc2c(S(=O)(=O)NCCCC(=O)O)cccc12
assigned-label: rule met
